What pIC50 was measured for each of the following?
molecular target: Protein deacetylase HDAC6 (Homo sapiens, UniProt Q9UBN7); assay: Inhibition of recombinant full length C-terminal FLAG-tagged human HDAC6 expressed in baculovirus infected Sf9 cells using Boc-Lys(Ac)-AMC as substrate preincubated for 15 mins followed by substrate addition and measured after 60 mins by fluorescence based assay
Sequence (Q9UBN7 whole entry): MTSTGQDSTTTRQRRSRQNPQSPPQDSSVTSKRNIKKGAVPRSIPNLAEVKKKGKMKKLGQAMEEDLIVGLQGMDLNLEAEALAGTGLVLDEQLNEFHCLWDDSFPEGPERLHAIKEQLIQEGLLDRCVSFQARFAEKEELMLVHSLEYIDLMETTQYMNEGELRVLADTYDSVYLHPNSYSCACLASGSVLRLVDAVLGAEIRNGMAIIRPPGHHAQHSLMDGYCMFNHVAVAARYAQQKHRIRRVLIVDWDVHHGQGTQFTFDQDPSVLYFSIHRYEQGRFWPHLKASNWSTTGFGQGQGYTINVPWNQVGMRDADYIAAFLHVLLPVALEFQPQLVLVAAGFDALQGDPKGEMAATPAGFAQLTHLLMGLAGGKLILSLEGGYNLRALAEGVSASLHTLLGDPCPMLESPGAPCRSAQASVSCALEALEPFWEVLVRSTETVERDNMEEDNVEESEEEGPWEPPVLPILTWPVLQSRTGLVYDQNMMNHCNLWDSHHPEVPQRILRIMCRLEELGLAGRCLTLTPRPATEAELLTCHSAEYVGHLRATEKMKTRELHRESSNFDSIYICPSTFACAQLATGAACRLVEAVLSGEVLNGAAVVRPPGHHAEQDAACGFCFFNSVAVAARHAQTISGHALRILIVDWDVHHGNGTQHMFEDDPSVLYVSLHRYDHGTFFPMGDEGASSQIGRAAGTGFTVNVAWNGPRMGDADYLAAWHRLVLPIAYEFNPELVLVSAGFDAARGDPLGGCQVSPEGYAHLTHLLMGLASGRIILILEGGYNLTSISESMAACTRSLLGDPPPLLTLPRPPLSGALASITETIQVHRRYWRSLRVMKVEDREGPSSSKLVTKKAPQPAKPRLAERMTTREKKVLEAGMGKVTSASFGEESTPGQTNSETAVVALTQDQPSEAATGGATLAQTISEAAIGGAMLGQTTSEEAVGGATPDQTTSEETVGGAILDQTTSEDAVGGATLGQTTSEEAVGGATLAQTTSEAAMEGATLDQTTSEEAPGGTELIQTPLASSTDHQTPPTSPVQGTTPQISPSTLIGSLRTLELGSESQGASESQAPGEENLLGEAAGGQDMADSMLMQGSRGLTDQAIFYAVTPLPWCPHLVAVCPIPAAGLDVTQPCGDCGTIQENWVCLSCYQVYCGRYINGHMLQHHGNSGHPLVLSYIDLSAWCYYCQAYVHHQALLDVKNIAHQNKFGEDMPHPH
pIC50: −log10 of the molar value.

Report the value of pIC50 obtained on Protein deacetylase HDAC6 (Homo sapiens, UniProt Q9UBN7) for O=C(CCNC(=O)/C(Cc1ccc(O)c(Br)c1)=N/O)NO . 7.02

Using Protein deacetylase HDAC6 (Homo sapiens, UniProt Q9UBN7) as the test system, report measured pIC50 of Nc1ccccc1NC(=O)CCCNC(=O)/C(Cc1ccc(O)c(Br)c1)=N/O . < 5.00

State the measured pIC50 (Protein deacetylase HDAC6 (Homo sapiens, UniProt Q9UBN7)) of O=C(NCCS)/C(Cc1ccc(O)c(Br)c1)=N/O 6.02

Lab note: Protein deacetylase HDAC6 (Homo sapiens, UniProt Q9UBN7) assay, enter pIC50 for O=C(O)CCNC(=O)/C(Cc1ccc(O)c(Br)c1)=N/O here < 5.00

Report value only: pIC50, Protein deacetylase HDAC6 (Homo sapiens, UniProt Q9UBN7), CCCCNC(=O)/C(Cc1ccc(O)c(Br)c1)=N/O < 5.00

Give Protein deacetylase HDAC6 (Homo sapiens, UniProt Q9UBN7) pIC50 for the following compound: Nc1ccccc1NC(=O)CCCCNC(=O)/C(Cc1ccc(O)c(Br)c1)=N/O < 5.00
